# ASSAY_METHOD_TEXT: Metabolic stability in CD1 mouse liver microsomes assessed as drug metabolism at 0.5 uM incubated for 30 mins in presence of NADPH
# Format: ADME
# CONDITIONS: read-out: Drug metabolism
Readings of metabolised at 0.5 h, 0.5 µM for the listed molecules

- SAMPLE_SMILES: "Clc1ccc(Nc2nc(-c3ccccn3)c(Cl)s2)nc1"
  metabolised at 0.5 h, 0.5 µM / %: 93
- SAMPLE_SMILES: "CCOc1ccc(-c2csc(Nc3ccc(Cl)cn3)n2)nc1"
  metabolised at 0.5 h, 0.5 µM / %: 62
- SAMPLE_SMILES: "c1ccc(Nc2nc(-c3ccccn3)cs2)nc1"
  metabolised at 0.5 h, 0.5 µM / %: 100
- SAMPLE_SMILES: "Clc1ccc(Nc2nc(-c3cccnn3)cs2)nc1"
  metabolised at 0.5 h, 0.5 µM / %: 95
- SAMPLE_SMILES: "Clc1ccc(Nc2nc(-c3ncccn3)cs2)nc1"
  metabolised at 0.5 h, 0.5 µM / %: 99
- SAMPLE_SMILES: "Clc1ccc(Nc2nc(-c3cnccn3)c(Cl)s2)nc1"
  metabolised at 0.5 h, 0.5 µM / %: 47
- SAMPLE_SMILES: "COc1ccc(Nc2nc(-c3ccccn3)cs2)nc1"
  metabolised at 0.5 h, 0.5 µM / %: 100
- SAMPLE_SMILES: "COc1cccc(-c2csc(Nc3ccc(Cl)cn3)n2)n1"
  metabolised at 0.5 h, 0.5 µM / %: 75
- SAMPLE_SMILES: "Clc1ccc(Nc2nc(-c3ncccn3)c(Cl)s2)nc1"
  metabolised at 0.5 h, 0.5 µM / %: 71
- SAMPLE_SMILES: "Clc1ccc(Nc2nc(-c3cccnn3)c(Cl)s2)nc1"
  metabolised at 0.5 h, 0.5 µM / %: 70
- SAMPLE_SMILES: "COc1ccnc(-c2nc(Nc3ccc(Cl)cn3)sc2Cl)c1"
  metabolised at 0.5 h, 0.5 µM / %: 90
- SAMPLE_SMILES: "CCOc1ccc(-c2nc(Nc3ccc(Cl)cn3)sc2Cl)nc1"
  metabolised at 0.5 h, 0.5 µM / %: 56
- SAMPLE_SMILES: "COc1ccc(Nc2nc(-c3ccccn3)cs2)cc1OC"
  metabolised at 0.5 h, 0.5 µM / %: 100
- SAMPLE_SMILES: "Clc1ccc(Nc2nc(-c3cnccn3)cs2)nc1"
  metabolised at 0.5 h, 0.5 µM / %: 99
- SAMPLE_SMILES: "COc1ccc(Nc2nc(-c3ccncc3)cs2)cc1"
  metabolised at 0.5 h, 0.5 µM / %: 83
- SAMPLE_SMILES: "Cc1ccnc(Nc2nc(-c3ccccn3)cs2)c1"
  metabolised at 0.5 h, 0.5 µM / %: 99
- SAMPLE_SMILES: "Cc1cccc(Nc2nc(-c3ccccn3)cs2)n1"
  metabolised at 0.5 h, 0.5 µM / %: 100
- SAMPLE_SMILES: "COc1ccc(Nc2nc(-c3cccnc3)cs2)cc1"
  metabolised at 0.5 h, 0.5 µM / %: 96
- SAMPLE_SMILES: "Cc1cccnc1Nc1nc(-c2ccccn2)cs1"
  metabolised at 0.5 h, 0.5 µM / %: 100
- SAMPLE_SMILES: "COc1ccc(-c2nc(Nc3ccc(Cl)cn3)sc2Cl)nc1"
  metabolised at 0.5 h, 0.5 µM / %: 92
- SAMPLE_SMILES: "c1ccc(-c2csc(Nc3ccc4c(c3)OCCO4)n2)nc1"
  metabolised at 0.5 h, 0.5 µM / %: 99
- SAMPLE_SMILES: "FC(F)(F)c1ccc(-c2csc(Nc3ccc(Cl)cn3)n2)nc1"
  metabolised at 0.5 h, 0.5 µM / %: 63
- SAMPLE_SMILES: "Cc1ccc(Nc2nc(-c3ccccn3)cs2)nc1"
  metabolised at 0.5 h, 0.5 µM / %: 100
- SAMPLE_SMILES: "Clc1ccc(Nc2nc(-c3ccccn3)cs2)nc1"
  metabolised at 0.5 h, 0.5 µM / %: 100
- SAMPLE_SMILES: "Cc1ccc(Nc2nc(-c3ccccn3)cs2)cc1C"
  metabolised at 0.5 h, 0.5 µM / %: 100
- SAMPLE_SMILES: "COc1ccc(Nc2nc(-c3ncccn3)cs2)cc1"
  metabolised at 0.5 h, 0.5 µM / %: 99
- SAMPLE_SMILES: "Cc1ccc(Nc2nc(-c3ccccn3)cs2)cc1"
  metabolised at 0.5 h, 0.5 µM / %: 100
